Listing of entries alongside the reported selectivity ratio.
Assay: Selectivity index, ratio of CC50 for human A549 cells to EC50 for pseudotyped Ebola virus expressing glycoprotein infected in human A549 cells
Assay type: toxicity, cell-based
Settings: read-out: Ratio CC50/EC50

O=C(N[C@]12CC3CC(C[C@@H](C3)C1)C2)c1ccc(CN2CCOCC2)cc1 = 16
CC1CCN(c2ccc(NC(=O)c3ccc(CN4C[C@@H]5C[C@H]4CO5)nc3)cc2C(F)(F)F)CC1 = 149
O=C(Nc1ccc(CN2CCOCC2)cc1)c1ccc(Cl)c(C(F)(F)F)c1 = 9
O=C(Nc1ccc(N2CCC3(CCC3)CC2)c(C(F)(F)F)c1)c1ccc(C(=O)N2C[C@@H]3C[C@H]2CO3)nc1 = 258
CC1CCN(c2ccc(NC(=O)c3ccc(CN4CCOCC4)cc3)cn2)CC1 = 8
O=C(Nc1ccc(CN2CCOCC2)cc1)Nc1ccc(C23CC4CC(CC(C4)C2)C3)cc1 = 32

Dear colleague, I am looking for the recorded selectivity ratio of the following compound: `O=C(c1ccc(CN2CCOCC2)cc1)N(c1ccccc1)c1ccccc1`
> 15

Bench note: what selectivity ratio did `CC1CCN(c2ccc(NC(=O)c3ccc(CN4CCOCC4)cc3)cc2Cl)CC1` show?
6

I am curious: what selectivity ratio value has been reported for `CC1CCN(c2ccc(N(CC3CC3)C(=O)c3ccc(CN4CCOCC4)cc3)cc2C(F)(F)F)CC1` ?
22

If you can, please state the reported selectivity ratio value of `CC1CCN(c2ccc(NC(=O)c3ccc(CN4C[C@@H]5C[C@H]4CO5)cn3)cc2C(F)(F)F)CC1` .
345

State the recorded selectivity ratio for this entry: CC1CC(C)CN(c2ccc(NC(=O)c3ccc(CN4CCOCC4)cc3)cc2C(F)(F)F)C1 (centres undefined)
52

Report selectivity ratio for `CC1(C)CCN(c2ccc(NC(=O)c3ccc(CN4CCOCC4)cc3)cc2C(F)(F)F)C1` please.
321

Give the measured selectivity ratio of `O=C(Nc1ccc(Cl)c(C(F)(F)F)c1)c1ccc(CN2CCOCC2)cc1` .
6

// selectivity ratio lookup, key: `CC1CCN(c2ccc(C(=O)Nc3ccc(CN4CCOCC4)cc3)cc2C(F)(F)F)CC1`
23

For `O=C(Nc1ccc(N2CC3(CCC3)C2)c(C(F)(F)F)c1)c1ccc(CN2CCOCC2)cc1` , what is its reported selectivity ratio?
116

Look up selectivity ratio: `CC1CCN(c2ccc(NC(=O)c3ccc(CN4C[C@@H]5C[C@H]4CO5)cc3)cc2C(F)(F)F)CC1`
86

// returns reported selectivity ratio for input `O=C(Nc1ccc(SC(F)(F)F)c(Cl)c1)c1ccc(CN2CCOCC2)cc1`
5

So what's the measured selectivity ratio for this one? `CC1CCN(c2ccc(NC(=O)c3ccc(CN4CCOCC4)cc3)cc2F)CC1`
> 1

Consider the compound `O=C(Nc1ccc(N2CCCC2)c(C(F)(F)F)c1)c1ccc(CN2CCOCC2)cc1` and give its measured selectivity ratio.
18

The measured values listed here are drawn from ChEMBL document CHEMBL6087437.
